The molecules below each have a reported Ki tested on Carbonic anhydrase 12 (Homo sapiens); the values come from various publications.
Sequence (O43570 whole entry): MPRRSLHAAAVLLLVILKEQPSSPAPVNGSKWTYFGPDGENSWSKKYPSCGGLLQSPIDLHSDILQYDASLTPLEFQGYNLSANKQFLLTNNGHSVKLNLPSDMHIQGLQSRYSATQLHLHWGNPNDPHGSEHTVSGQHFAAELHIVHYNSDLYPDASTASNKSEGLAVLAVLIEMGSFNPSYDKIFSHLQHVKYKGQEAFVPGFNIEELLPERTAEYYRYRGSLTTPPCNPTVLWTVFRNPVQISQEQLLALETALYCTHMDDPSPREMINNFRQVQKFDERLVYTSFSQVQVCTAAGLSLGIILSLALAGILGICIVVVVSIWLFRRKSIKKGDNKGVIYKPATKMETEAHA

Assay Carbonic anhydrase 12 (Homo sapiens), sample "CCCNS(=O)(=O)NCCC" , Ki read: > 200 µM

Assay Carbonic anhydrase 12 (Homo sapiens), sample "CCOC(=O)c1cc(S(N)(=O)=O)c(SSc2cc(Cl)c(C(=O)OCC)cc2S(N)(=O)=O)cc1Cl" , Ki read: > 10 µM

Assay Carbonic anhydrase 12 (Homo sapiens), sample "NS(=O)(=O)c1ccc2c(c1)C(=O)C(=O)N2Cc1cccc(F)c1" , Ki read: > 10 µM

Assay Carbonic anhydrase 12 (Homo sapiens), sample "O=C(NCCNCCNCCNC(=O)C(F)(F)F)C(F)(F)F" , Ki read: > 500 µM

Assay Carbonic anhydrase 12 (Homo sapiens), sample "O=C(Nc1ccc(Cl)cc1C(=O)O)c1ccc2c(c1)C(=O)N(c1ccccc1)C2=O" , Ki read: > 100 µM

Assay Carbonic anhydrase 12 (Homo sapiens), sample "CC(=O)OC[C@H]1O[C@@H]([Se]c2ccc(S(N)(=O)=O)c(N)c2)[C@H](OC(C)=O)[C@@H](OC(C)=O)[C@@H]1OC(C)=O" , Ki read: > 10 µM

Assay Carbonic anhydrase 12 (Homo sapiens), sample "NS(=O)(=O)c1cc(C(=O)NCc2ccccc2)c(Cl)cc1SSc1cc(Cl)c(C(=O)NCc2ccccc2)cc1S(N)(=O)=O" , Ki read: > 10 µM

Assay Carbonic anhydrase 12 (Homo sapiens), sample "CCOC(=O)c1ccc(C(=O)Nc2ccc(-c3cn4c(=O)n(-c5ccccc5)nc4c(N)n3)cc2)cc1" , Ki read: > 100 µM

Assay Carbonic anhydrase 12 (Homo sapiens), sample "Cc1c(-c2nn(-c3ccccc3)cc2/C=N/O)nnn1-c1ccc(S(N)(=O)=O)cc1" , Ki read: > 100 µM

Assay Carbonic anhydrase 12 (Homo sapiens), sample "CC(=O)Oc1ccc2c(c1)OS(=O)(=O)CC2" , Ki read: > 10 µM

Assay Carbonic anhydrase 12 (Homo sapiens), sample "COc1cc(C[C@H]2C[C@H]2C(=O)O)c(Br)c(Br)c1OC" , Ki read: > 50 µM

Assay Carbonic anhydrase 12 (Homo sapiens), sample "Cc1cc(S(N)(=O)=O)c(S/C(=N\NS(=O)(=O)c2ccccc2)c2ccccc2)cc1Cl" , Ki read: > 10 µM
